# Tested on: Plasmodium berghei
# Method Summary: Luciferase/luciferin-expressing antifolate-resistant parasites were used to infect a culture of HepG2 cells that were pre-incubated with compounds. Infected hepatocytes emit light due to the luciferase reaction. Assay results are presented as the percent inhibition of light emission compared to control. […]
# Assay type: functional
# Experimental Conditions: sporozoite, FFLUC_HILL_SLOPE 24, FFLUC_R_SQUARED 0.142, HEPG2TOX_HILL_SLOPE 12.3, HEPG2TOX_R_SQUARED 0.867, PBLUC_HILL_SLOPE 2.49, PBLUC_R_SQUARED 0.792, read-out: LUCIFERASE INFECTION ASSAY - IC50
Outcome Measure: pIC50
Give bare numbers, as −log10 of the molar value.

Tell me its pIC50 on Plasmodium berghei: Clc1ccc(C2=NN=C/C2=N\Nc2ccccc2)cc1
5.26
